Target: Epithelial discoidin domain-containing receptor 1 (Homo sapiens); further: in the data inactive means no Kd found up to 30 µM
Sequence (Q08345 whole entry, the tested form may be a part): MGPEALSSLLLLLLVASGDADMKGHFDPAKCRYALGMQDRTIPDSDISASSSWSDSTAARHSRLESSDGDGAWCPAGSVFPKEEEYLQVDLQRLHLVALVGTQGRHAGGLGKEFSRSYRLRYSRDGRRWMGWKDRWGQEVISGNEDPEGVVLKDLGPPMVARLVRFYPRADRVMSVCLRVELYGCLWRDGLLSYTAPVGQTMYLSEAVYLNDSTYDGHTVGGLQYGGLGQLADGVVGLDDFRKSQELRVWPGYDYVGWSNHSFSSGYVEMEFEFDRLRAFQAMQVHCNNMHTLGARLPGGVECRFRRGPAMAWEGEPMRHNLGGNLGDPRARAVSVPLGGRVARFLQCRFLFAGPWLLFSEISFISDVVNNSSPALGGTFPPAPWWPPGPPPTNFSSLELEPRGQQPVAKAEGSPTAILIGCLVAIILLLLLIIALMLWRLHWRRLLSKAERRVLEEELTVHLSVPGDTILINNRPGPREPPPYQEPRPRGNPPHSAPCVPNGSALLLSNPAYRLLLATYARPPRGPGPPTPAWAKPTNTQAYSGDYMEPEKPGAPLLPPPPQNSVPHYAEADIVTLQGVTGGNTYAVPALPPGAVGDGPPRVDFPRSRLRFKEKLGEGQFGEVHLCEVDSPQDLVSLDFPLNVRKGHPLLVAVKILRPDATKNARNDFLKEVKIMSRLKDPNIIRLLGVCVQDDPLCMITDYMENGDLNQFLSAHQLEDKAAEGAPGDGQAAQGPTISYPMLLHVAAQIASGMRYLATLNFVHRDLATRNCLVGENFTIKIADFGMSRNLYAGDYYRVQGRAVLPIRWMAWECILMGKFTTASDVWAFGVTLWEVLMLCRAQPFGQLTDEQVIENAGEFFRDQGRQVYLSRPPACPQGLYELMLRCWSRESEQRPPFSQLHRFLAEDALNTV
Active and inactive are the calls of the source.
Outcome codes: Y = active, N = inactive

# structure_smiles_string, answer_label
measured = [
    ("Cc1cc(Nc2nc(N[C@@H](C)c3ncc(F)cn3)ncc2Cl)n[nH]1", "N"),
    ("COc1ccc2c(OCc3nnc4ccc(-c5ccccc5)nn34)ccnc2c1", "N"),
    ("NC[C@@](O)(c1ccc(Cl)cc1)c1ccc(-c2cn[nH]c2)cc1", "N"),
    ("O=C(NOC[C@H](O)CO)c1ccc(F)c(F)c1Nc1ccc(I)cc1F", "N"),
    ("C=CCn1c(=O)c2cnc(Nc3ccc(N4CCN(C)CC4)cc3)nc2n1-c1cccc(C(C)(C)O)n1", "N"),
    ("CCOc1ccn(-c2ccc(F)cc2)c(=O)c1C(=O)Nc1ccc(Oc2ccnc(N)c2Cl)c(F)c1", "Y"),
]

----------
Target: Serine/threonine-protein kinase 3 (Homo sapiens); further: in the data inactive means no Kd found up to 30 µM
Sequence (Q13188 whole entry): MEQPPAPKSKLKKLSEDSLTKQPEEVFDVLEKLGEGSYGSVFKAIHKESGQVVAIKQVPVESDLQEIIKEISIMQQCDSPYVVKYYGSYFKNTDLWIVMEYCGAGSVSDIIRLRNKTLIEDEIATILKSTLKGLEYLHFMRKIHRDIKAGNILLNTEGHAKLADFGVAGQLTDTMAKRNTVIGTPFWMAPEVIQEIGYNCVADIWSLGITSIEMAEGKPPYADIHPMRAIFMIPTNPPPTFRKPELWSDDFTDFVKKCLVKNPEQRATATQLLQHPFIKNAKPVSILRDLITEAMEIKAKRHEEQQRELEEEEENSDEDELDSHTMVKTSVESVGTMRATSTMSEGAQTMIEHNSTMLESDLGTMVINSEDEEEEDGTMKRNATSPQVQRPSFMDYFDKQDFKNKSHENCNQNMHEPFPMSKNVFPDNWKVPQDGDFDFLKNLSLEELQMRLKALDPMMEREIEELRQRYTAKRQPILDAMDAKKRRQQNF
The source made the active and inactive calls.
Outcome codes: active, inactive

# compound, answer_label
measured = [
    ("C#Cc1cccc(Nc2ncnc3cc4c(cc23)OCCOCCOCCO4)c1", "inactive"),
    ("Cc1c(Cn2c(C)nc3c(C(=O)O)cc(N4CCOCC4)cc32)cccc1C(F)(F)F", "inactive"),
    ("CNC(=O)c1cccc(-c2ccc3c(N4CCOC[C@@H]4C)nc(N4CCOC[C@@H]4C)nc3n2)c1", "inactive"),
    ("Cn1cc(-c2[nH]c3cc(NC(=O)[C@H](N)C4CCCCC4)cc4c3c2C=NNC4=O)cn1", "inactive"),
    ("C[C@@H]1COC(Nc2ccc3ncnc(Nc4ccc(OCc5nccs5)c(Cl)c4)c3c2)=N1", "inactive"),
    ("CC[C@@](C)(Nc1ccnc(-c2c[nH]c3ncccc23)n1)C(=O)NCC(F)(F)F", "inactive"),
    ("Cn1c(=O)n(-c2ccc(C(C)(C)C#N)cc2)c2c3cc(-c4cnc5ccccc5c4)ccc3ncc21", "inactive"),
    ("CNC(=O)c1ccc(Nc2ncc(C(F)(F)F)c(NCc3nccnc3N(C)S(C)(=O)=O)n2)cc1", "active"),
    ("COCCN1CCN(Cc2ccc(-c3n[nH]c4c3C(=O)c3c(NC(=O)NN5CCOCC5)cccc3-4)cc2)CC1", "inactive"),
    ("NC(=O)c1ccc(N(C(N)=O)c2c(F)cccc2F)nc1-c1ccc(F)cc1F", "inactive"),
    ("Cc1cc(Nc2nc(N[C@@H](C)c3ncc(F)cn3)ncc2Cl)n[nH]1", "active"),
    ("C=CCN(/C=C1/C(=O)O[C@H](COC)[C@@]2(C)C1=C(O)C(=O)C1=C2[C@H](OC(C)=O)C[C@]2(C)C(=O)CC[C@@H]12)CC=C", "inactive"),
    ("CNC(=O)c1cc(COc2nnc(Nc3ccc(Cl)cc3)c3ccoc23)ccn1", "inactive"),
    ("CN1CCN(c2nc(C3=C(c4c[nH]c5ccccc45)C(=O)NC3=O)c3ccccc3n2)CC1", "inactive"),
    ("Cc1ccc(C(=O)Nc2ccc(Oc3cc4cnn(C)c4cc3-c3cn[nH]c3)c(F)c2)c(=O)n1-c1ccc(F)cc1", "inactive"),
    ("CCOc1ccn(-c2ccc(F)cc2)c(=O)c1C(=O)Nc1ccc(Oc2ccnc(N)c2Cl)c(F)c1", "inactive"),
    ("O[C@H]1CC[C@H](Nc2ncc3nc(Nc4c(F)cc(F)cc4F)n([C@H]4CCOC4)c3n2)CC1", "inactive"),
    ("CCN1CCN(Cc2ccc(Nc3ncc(F)c(-c4cc(F)c5nc(C)n(C(C)C)c5c4)n3)nc2)CC1", "inactive"),
    ("COc1cccc(Nc2ncnn3ccc(CN4CC[C@@H](N)[C@H](O)C4)c23)c1", "inactive"),
    ("COc1cc(Nc2ncc(F)c(Nc3ccc4c(n3)N(COP(=O)(O)O)C(=O)C(C)(C)O4)n2)cc(OC)c1OC", "inactive"),
    ("Cn1c(=O)c(F)c(Nc2ccc(I)cc2F)c2c(=O)n(C[C@@H](O)CO)cnc21", "inactive"),
    ("Cc1cc(-c2cc(OC(=O)c3ccccc3)ccc2Cl)cc2nnc(Nc3ccc(OCCN4CCCC4)cc3)nc12", "inactive"),
    ("COc1cc2ncnc(Nc3ccc(F)c(Cl)c3)c2cc1NC(=O)/C=C/CN1CCCCC1 [DACOMITINIB ANHYDROUS]", "inactive"),
    ("COc1cccc2cc(-c3nc([C@H]4CC[C@H](C(=O)O)CC4)n4ncnc(N)c34)[nH]c12", "inactive"),
    ("COc1ccc(-c2ccc3ncc4c(c3c2)n(-c2ccc(N3CCNCC3)c(C(F)(F)F)c2)c(=O)n4C)cn1 [BGT-226 FREE BASE]", "inactive"),
    ("O=C(Nc1ccc(OC(F)(F)F)cc1)c1sccc1NCc1ccnc2ccccc12", "inactive"),
    ("O=C(O)c1ccc2c(c1)nc(Nc1cccc(Cl)c1)c1ccncc12", "inactive"),
    ("COc1ccc2c(OCc3nnc4ccc(-c5ccccc5)nn34)ccnc2c1", "inactive"),
    ("O=C(NC[C@H](O)CO)c1ccncc1Nc1ccc(I)cc1F", "inactive"),
    ("CC(C)(O)CC(=O)NCCn1ccc2ncnc(Nc3ccc(Oc4cccc(C(F)(F)F)c4)c(Cl)c3)c21", "inactive"),
    ("C=CC(=O)Nc1cccc(Nc2nc(Nc3ccc(N4CCN(C(C)=O)CC4)cc3OC)ncc2C(F)(F)F)c1", "inactive"),
    ("COc1cc2ncnc(Nc3ccc(O)cc3)c2cc1OC", "inactive"),
]

----------
Target: Cyclin-dependent kinase 12 (Homo sapiens); further: in the data inactive means no Kd found up to 30 µM
Sequence (Q9NYV4 whole entry): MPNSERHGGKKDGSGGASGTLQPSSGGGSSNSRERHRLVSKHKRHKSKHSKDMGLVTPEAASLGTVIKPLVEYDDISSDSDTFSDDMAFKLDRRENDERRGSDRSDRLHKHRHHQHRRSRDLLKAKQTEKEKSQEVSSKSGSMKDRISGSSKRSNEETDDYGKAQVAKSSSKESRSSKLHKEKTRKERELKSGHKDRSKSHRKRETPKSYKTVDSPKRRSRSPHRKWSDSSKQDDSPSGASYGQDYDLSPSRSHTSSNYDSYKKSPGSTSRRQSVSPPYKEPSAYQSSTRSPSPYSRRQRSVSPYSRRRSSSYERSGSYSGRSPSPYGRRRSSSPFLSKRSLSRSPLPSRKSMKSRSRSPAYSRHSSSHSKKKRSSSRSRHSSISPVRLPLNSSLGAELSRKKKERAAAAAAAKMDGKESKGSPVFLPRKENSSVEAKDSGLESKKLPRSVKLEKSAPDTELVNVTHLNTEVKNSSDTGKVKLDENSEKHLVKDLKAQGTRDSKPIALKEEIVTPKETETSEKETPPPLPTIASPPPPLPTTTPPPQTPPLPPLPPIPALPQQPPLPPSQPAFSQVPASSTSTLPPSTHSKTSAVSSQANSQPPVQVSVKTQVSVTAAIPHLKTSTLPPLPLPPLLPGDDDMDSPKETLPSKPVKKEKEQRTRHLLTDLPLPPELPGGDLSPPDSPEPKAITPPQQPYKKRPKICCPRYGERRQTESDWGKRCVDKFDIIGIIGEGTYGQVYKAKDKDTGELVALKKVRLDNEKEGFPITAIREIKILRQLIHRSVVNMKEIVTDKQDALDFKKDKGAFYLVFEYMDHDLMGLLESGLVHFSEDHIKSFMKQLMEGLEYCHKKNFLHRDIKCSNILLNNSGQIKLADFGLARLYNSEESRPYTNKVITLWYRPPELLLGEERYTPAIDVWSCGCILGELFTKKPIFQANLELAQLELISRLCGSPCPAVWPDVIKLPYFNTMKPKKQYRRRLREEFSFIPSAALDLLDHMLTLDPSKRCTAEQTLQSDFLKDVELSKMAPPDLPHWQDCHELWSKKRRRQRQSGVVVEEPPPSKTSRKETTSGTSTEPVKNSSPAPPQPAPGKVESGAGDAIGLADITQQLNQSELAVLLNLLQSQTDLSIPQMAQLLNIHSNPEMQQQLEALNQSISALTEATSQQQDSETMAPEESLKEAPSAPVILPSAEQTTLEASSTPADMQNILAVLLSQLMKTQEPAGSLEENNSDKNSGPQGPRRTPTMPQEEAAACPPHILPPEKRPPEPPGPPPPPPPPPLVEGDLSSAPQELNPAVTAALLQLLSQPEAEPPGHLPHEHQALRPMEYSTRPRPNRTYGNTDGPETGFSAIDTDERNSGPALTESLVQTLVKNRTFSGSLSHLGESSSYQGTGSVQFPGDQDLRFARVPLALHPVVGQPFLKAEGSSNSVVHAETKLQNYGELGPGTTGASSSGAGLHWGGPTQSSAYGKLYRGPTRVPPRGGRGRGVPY
Active and inactive are the calls of the source.
Outcome codes: active, inactive

# compound, answer_label
measured = [
    ("O=C(NOC[C@H](O)CO)c1ccc(F)c(F)c1Nc1ccc(I)cc1F [MIRDAMETINIB]", "inactive"),
    ("COc1cc2ncnc(Nc3ccc(O)cc3)c2cc1OC [WHI-P131]", "inactive"),
    ("COc1cc2nccc(Oc3ccc(NC(=O)C4(C(=O)Nc5ccc(F)cc5)CC4)cc3)c2cc1OC [CABOZANTINIB]", "inactive"),
    ("CCN1CCN(Cc2ccc(Nc3ncc(F)c(-c4cc(F)c5nc(C)n(C(C)C)c5c4)n3)nc2)CC1 [ABEMACICLIB]", "inactive"),
    ("COc1cccc2cc(-c3nc([C@H]4CC[C@H](C(=O)O)CC4)n4ncnc(N)c34)[nH]c12 [OSI-027]", "inactive"),
    ("C[C@@]1(C(=O)Nc2ccc(F)nc2)CCCN1c1nc(Nc2cc(C3CC3)n[nH]2)c2cccn2n1 [BMS-754807]", "inactive"),
    ("NC(=O)c1ccc(N(C(N)=O)c2c(F)cccc2F)nc1-c1ccc(F)cc1F [VX-702]", "inactive"),
    ("FC(F)(F)c1ccc(CNc2ccc(Cc3c[nH]c4ncc(Cl)cc34)cn2)cn1 [PEXIDARTINIB]", "inactive"),
    ("CNC(=O)c1ccc(Nc2ncc(C(F)(F)F)c(NCc3nccnc3N(C)S(C)(=O)=O)n2)cc1 [DEFACTINIB]", "active"),
    ("CN1CCN(c2nc(C3=C(c4c[nH]c5ccccc45)C(=O)NC3=O)c3ccccc3n2)CC1 [SOTRASTAURIN]", "inactive"),
    ("COc1cc(F)c(F)c(Nc2ccc(I)cc2F)c1NS(=O)(=O)C1(C[C@H](O)CO)CC1 [REFAMETINIB]", "inactive"),
    ("COc1ccc2c(OCc3nnc4ccc(-c5ccccc5)nn34)ccnc2c1 [AMG-208]", "inactive"),
    ("CCOc1ccn(-c2ccc(F)cc2)c(=O)c1C(=O)Nc1ccc(Oc2ccnc(N)c2Cl)c(F)c1 [BMS-777607]", "inactive"),
    ("S=C(NCc1ccc2c(c1)OCO2)N1CCN(c2ncnc3c2oc2ccccc23)CC1 [AMUVATINIB]", "inactive"),
    ("O=S(=O)(c1cccc2cnccc12)N1CCCNCC1 [FASUDIL]", "active"),
    ("Cc1cc(-c2cc(OC(=O)c3ccccc3)ccc2Cl)cc2nnc(Nc3ccc(OCCN4CCCC4)cc3)nc12 [TG100-801]", "inactive"),
    ("CN(c1ncccc1CNc1nc(Nc2ccc3c(c2)CC(=O)N3)ncc1C(F)(F)F)S(C)(=O)=O [PF-00562271]", "inactive"),
    ("C=CCN(/C=C1/C(=O)O[C@H](COC)[C@@]2(C)C1=C(O)C(=O)C1=C2[C@H](OC(C)=O)C[C@]2(C)C(=O)CC[C@@H]12)CC=C [SONOLISIB]", "inactive"),
    ("O[C@H]1CC[C@H](Nc2ncc3nc(Nc4c(F)cc(F)cc4F)n([C@H]4CCOC4)c3n2)CC1 [TANZISERTIB]", "inactive"),
    ("c1cc(OCCN2CCCCC2)cc(-c2n[nH]c3ccc(-c4nc[nH]n4)cc23)c1 [CC-401]", "inactive"),
    ("CCN(CCCOc1ccc2c(Nc3cc(CC(=O)Nc4cccc(F)c4)n[nH]3)ncnc2c1)CCOP(=O)(O)O [BARASERTIB]", "inactive"),
    ("C#Cc1cccc(Nc2ncnc3cc4c(cc23)OCCOCCOCCO4)c1 [ICOTINIB]", "inactive"),
    ("CN(C)C/C=C/C(=O)Nc1cc2c(Nc3ccc(F)c(Cl)c3)ncnc2cc1O[C@H]1CCOC1 [AFATINIB]", "inactive"),
    ("CC(C)(O)CC(=O)NCCn1ccc2ncnc(Nc3ccc(Oc4cccc(C(F)(F)F)c4)c(Cl)c3)c21 [TAK-285]", "inactive"),
    ("N#CCNC(=O)c1ccc(-c2ccnc(Nc3ccc(N4CCOCC4)cc3)n2)cc1 [MOMELOTINIB]", "inactive"),
    ("COc1cc2c(N3CCN(C(=O)Nc4ccc(OC(C)C)cc4)CC3)ncnc2cc1OCCCN1CCCCC1 [TANDUTINIB]", "inactive"),
    ("O=c1[nH]c([C@@H]2CCCN2)nc2c1oc1ccc(Cl)cc12", "inactive"),
    ("O=C(Nc1ccc(OC(F)(F)F)cc1)c1sccc1NCc1ccnc2ccccc12 [OSI-930]", "inactive"),
    ("Cn1c(=O)n(-c2ccc(C(C)(C)C#N)cc2)c2c3cc(-c4cnc5ccccc5c4)ccc3ncc21 [DACTOLISIB]", "inactive"),
    ("C=CCn1c(=O)c2cnc(Nc3ccc(N4CCN(C)CC4)cc3)nc2n1-c1cccc(C(C)(C)O)n1 [ADAVOSERTIB]", "inactive"),
    ("CC[C@@](C)(Nc1ccnc(-c2c[nH]c3ncccc23)n1)C(=O)NCC(F)(F)F [DECERNOTINIB]", "inactive"),
    ("C[C@]1(O)C[C@@H](c2nc(-c3ccc4ccc(-c5ccccc5)nc4c3)c3c(N)nccn32)C1 [LINSITINIB]", "inactive"),
]
